B1: FAM164C (parent)
chain: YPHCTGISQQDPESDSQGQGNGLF

Variants of: B1
Test: protein stability index of a GFP-peptide fusion (GPS, HEK-293T) (PSI 1-6); higher = more stable;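 further: lentivirally expressed fusions sorted by FACS into six bins by GFP to DsRed ratio, PSI derived from sequencing read proportions per bin multiplied by bin number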
Settings: c terminus: a fixed tail appended
# reported protein stability index; entries follow

{"mutant.name": "Q19S", "protein stability index": 3.9}
{"mutant.name": "T5L", "protein stability index": 2.35}
{"mutant.name": "G18M", "protein stability index": 3.19}
{"mutant.name": "P2A", "protein stability index": 3.57}
{"mutant.name": "D15F", "protein stability index": 2.94}
{"mutant.name": "Y1D", "protein stability index": 5.46}
{"mutant.name": "G22E", "protein stability index": 3.76}
{"mutant.name": "G6I", "protein stability index": 3.25}
{"mutant.name": "G20N", "protein stability index": 3.48}
{"mutant.name": "F24Y", "protein stability index": 3.87}
{"mutant.name": "E13L", "protein stability index": 2.81}
{"mutant.name": "T5G", "protein stability index": 2.93}
{"mutant.name": "S16C", "protein stability index": 3.35}
{"mutant.name": "G22S", "protein stability index": 3.57}
{"mutant.name": "I7R", "protein stability index": 3.94}
{"mutant.name": "G22K", "protein stability index": 3.96}
{"mutant.name": "H3I", "protein stability index": 4.18}
{"mutant.name": "P12S", "protein stability index": 3.98}
{"mutant.name": "S14M", "protein stability index": 3.4}
{"mutant.name": "D11S", "protein stability index": 3.58}
{"mutant.name": "P12Q", "protein stability index": 3.71}
{"mutant.name": "Q19N", "protein stability index": 3.66}
